- Tested on: HIF-2α transcriptional activity
- protocol text: Hypoxia-responsive element-driven luciferase (HRE-Luc) screen
- Type: cell-based, human
- condition parameters: Homo sapiens, 786-0, 24 h, 786-0 ccRCC cells stably expressing HRE-Luc; 24 h treatment; range of IC50 values
pIC50: −log10 of the molar value.
reported property: pIC50

Answered cases to consult:
COc1cccc2[nH]c(Nc3nnc(N4CCN(C)CC4)o3)nc12 [Compound 73]    4.00 to 4.30
COc1nccc2nc(Nc3nnc(N4CC(C)OC(C)C4)o3)[nH]c12 (stereo not drawn) [Compound 70]    > 5.00
COc1nccc2[nH]c(Nc3nnc(-c4ccc(C#N)cc4)o3)nc12 [Compound 32]    < 5.00

As a next step, examine the molecule that follows.
Q: # return recorded pIC50 for input Fc1ccc(-c2nnc(Nc3nc4ccnc(-c5ccc6c(c5)OCO6)c4[nH]3)o2)cc1 [Compound 31]
Ans: 4.30 to 5.00
